test system: P.A.F.-induced aggregation of blood platelets; test: anti-P.A.F. action in vitro (P.A.F.-induced platelet aggregation); type: cell-based; conditions: Oryctolagus cuniculus, 10^-5 mole/liter, read-out: Anti-P.A.F. activity in vitro, % inhibition of the P.A.F.-induced aggregation of blood platelets from rabbit blood
Exercise: state measured inhibition at 10 µM for each of the compounds provided.
Numbers only, in %.

1) Cc1ccnc(N2CCN(CCC3Cn4c(-c5cc(C)c(O)c(C)c5)c(C)c5cc(O)cc(c54)O3)CC2)c1 (stereo not shown) [Example 44]	99
2) Cc1ccnc(N2CCN(CCC3Cn4c(-c5ccc(O)c(O)c5)c(C)c5cccc(c54)O3)CC2)c1 (stereo not shown) [Example 13]	94
3) Cc1ccnc(N2CCN(CCCCC3Cn4c(-c5cc(C)c(O)c(C)c5)c(C)c5cccc(c54)S3)CC2)c1 (stereo not shown) [Example 63]	80

# context switch: different compound, same inhibition at 10 µM
Input COc1ccc(-c2c(C)c3cccc4c3n2CC(CCC(=O)N2CCN(c3cc(C)ccn3)CC2)O4)cc1 (stereo not shown) [Example 6] , output reported inhibition at 10 µM.
100
